# experimentSummary: Safety index, ratio of compound IC50 to emetine IC50 for CHO cells
# Format: ADME, cell-based, Cricetulus griseus
# conditionSummary: Chinese hamster, read-out: Ratio IC50
experimentalReadout: selectivity ratio

molecule: C[C@@H]1CC[C@H]2C(C)(COC(=O)[C@@H]3CCCN3C(=O)C(F)(F)F)O[C@@H]3O[C@]4(C)CC[C@@H]1[C@]32OO4 (stereo partly specified)
assayValue: ≤ 600

---

Ratio IC50 overview
# Test system: CHO
# experimentSummary: Selectivity index, ratio of IC50 for CHO cells to IC50 for human MCF7 cells
# Assay type: functional

compound: C[C@@H]1CC[C@H]2C(C)(COC(=O)[C@@H]3CCCN3C(=O)C(F)(F)F)O[C@@H]3O[C@]4(C)CC[C@@H]1[C@]32OO4 (stereo partly specified)
Ratio IC50: 33.5
//
compound: CCCC(=O)OCC1(C)O[C@@H]2O[C@]3(C)CC[C@H]4[C@H](C)CC[C@@H]1[C@@]24OO3 (stereo partly specified)
Ratio IC50: >2
//
compound: Cc1ccsc1C(=O)OCC1(C)O[C@@H]2O[C@]3(C)CC[C@H]4[C@H](C)CC[C@@H]1[C@@]24OO3 (stereo partly specified)
Ratio IC50: >15
//
compound: C[C@@H]1CC[C@H]2C(C)(COC(=O)c3ccc(F)cc3)O[C@@H]3O[C@]4(C)CC[C@@H]1[C@]32OO4 (stereo partly specified)
Ratio IC50: >40
//
compound: C[C@@H]1CC[C@H]2C(C)(COC(=O)c3cccs3)O[C@@H]3O[C@]4(C)CC[C@@H]1[C@]32OO4 (stereo partly specified)
Ratio IC50: >2
//
compound: C[C@@H]1CC[C@H]2C(C)(COC(=O)c3cc4ccccc4o3)O[C@@H]3O[C@]4(C)CC[C@@H]1[C@]32OO4 (stereo partly specified)
Ratio IC50: >6
//
compound: C[C@@H]1CC[C@H]2C(C)(COC(=O)c3ccc([N+](=O)[O-])cc3)O[C@@H]3O[C@]4(C)CC[C@@H]1[C@]32OO4 (stereo partly specified)
Ratio IC50: >2
//
compound: CC(=O)Oc1ccccc1C(=O)OCC1(C)O[C@@H]2O[C@]3(C)CC[C@H]4[C@H](C)CC[C@@H]1[C@@]24OO3 (stereo partly specified)
Ratio IC50: >10
//
compound: CCCCCC(=O)OCC1(C)O[C@@H]2O[C@]3(C)CC[C@H]4[C@H](C)CC[C@@H]1[C@@]24OO3 (stereo partly specified)
Ratio IC50: >2
//
compound: C[C@@H]1CC[C@H]2C(C)(COC(=O)c3ccc(-c4ccccc4)cc3)O[C@@H]3O[C@]4(C)CC[C@@H]1[C@]32OO4 (stereo partly specified)
Ratio IC50: >40
//
compound: C[C@@H]1CC[C@H]2C(C)(COC(=O)CCc3ccccc3)O[C@@H]3O[C@]4(C)CC[C@@H]1[C@]32OO4 (stereo partly specified)
Ratio IC50: >3
